The values you see were collected from patent US20120277143A1.

Each entry below carries its reported pKd.
# MEASURED_TARGET: T1, human IL13 (human, UniProt P35225 35-146, biotinylated in the SPR assays (sites not given))
# T1 construct: Peprotech; also called hIL13; recombinant human IL13
# T1 sequence (P35225 other isoform, or with tags, fused parts or gaps limits assumed): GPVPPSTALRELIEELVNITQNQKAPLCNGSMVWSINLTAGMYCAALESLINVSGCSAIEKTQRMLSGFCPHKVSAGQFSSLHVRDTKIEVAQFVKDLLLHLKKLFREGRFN
# ASSAY_DETAILS: SPR BIAcore, biotin-IL13 on SA chip, global fit
Answer as the number alone; pKd is minus log10 of concentration in mol/L.

Worked cases, pKd given:
Per the record, 6D4 (designed binder, N-Cap-(AR)3-C-Cap) DLGKKLLEAARAGQDDEVRILMANGADVNAADDYGSTPLHLAARSGHLEIVEVLLKHGADVNANDFIGDTPLHLAAYNGHLEIVEVLLKNGADVNATDITGETPLHLAAERGHLEIVEVLLKNGADVNTQDKFGKTAFDISIDNGNEDLAEILQKLN has pKd of 10.11

Per the record, 7G11 (designed binder, ankyrin repeat protein) DLGKKLLEAARAGQDDEVRILMANGADVNATDEFDSTPLHLAARHGHLEIVEVLLKYGADVNAADFIGDTPLHLAAYRGHLEIVEVLLKCGVDVNADDHGDTPLHLAASMGHLEIVEVLLKNGADVNAQDKFGKTAFDISIDNGNEDLAEILQKLN has pKd of 10.48

Per the record, 6G11 (designed binder, N-Cap-(AR)3-C-Cap) DLGKKLLEAARAGQDDEVRILMANGADVNAEDILGITPLHLAAHHGHLEIVEVLLKHGADVNANDFAGYTPLHLAAVYGHLEIVEVLLKYGADVNATDAWGETPLHLAAYTGHLEIVEVLLKHDADVNAQDKFGKTAFDISIDNGNEDLAEILQKLN has pKd of 9.97

Per the record, 9E11 (designed binder, N-Cap-(AR)3-C-Cap) DLGKKLLEAARAGQDDEVRILMANGADVNASDIYGSTPLHLAARHGHLEIVEVLLKNGADVNANDMIGDTPLHLAAYHGHLEIVEVLLKHGADVNASDITGETPLHLAAHNGHLEIVEVLLKYGADVNAQDKFGKTAFDISIDNGNEDLAEILQKLN has pKd of 10.68

Others:
Per the record, 7D2 (designed binder, N-Cap-(AR)3-C-Cap) DLGKKLLEAARAGQDDEVRILMANGADVNAFDDFGSTPLHLAARSGHLEIVEVLLKHGADVNAHDMIGDTPLHLAAYHGHLEIVEVLLKYGADVNAKDTSGTTPLHLAADSGHLEIVEVLLKHGADVNAQDKFGKTAFDISIDNGNEDLAEILQKLN has pKd of 10.02

Per the record, 7D7 (designed binder, N-Cap-(AR)3-C-Cap) DLGKKLLEAARAGQDDEVRILMANGADVNATDTYGSTPLHLAARHCHQEIVEVLLKHGADVNANDFIGDTPLHLAAWHGHLEIVEVLLKNGADVNAMDVTGETPLHLAAYHGHLDIVEVLLKNGADVNAQDKFGKTAFDISIDNGNEDLAEILQKLN has pKd of 9.69

Per the record, 5D12 (designed binder, N-Cap-(AR)3-C-Cap) DLGKKLLEAARAGQDDEVRILMANGADVNAVDDYGSTPLHLAARQGHLEIVEVLLKNGADVNADDFIGDTPLHLAAFKGHLEIVEVLLKNGADVNASDITGETPLHLAATAGHLEIVEVLLKHGADVNAQDKFGKTAFDISIDNGNEDLAEILQKLN has pKd of 9.78

Per the record, IL13 binding protein 6G9 (designed binder) DLGKKLLEAARAGQDDEVRILMANGADVNARDSYGSTPLHLAAREGHLEIVEVLLKYGADVNAKDMIGDTPLHLAAYRGHLEIVEVLLKNGADVNASDITGETPLHLAAQIGHLEIVEVLLKYGADVNAQDKFGKTAFDISIDNGNEDLAEILQKLN has pKd of 10.24
